# Assay explanation: Cell viability staining with Alamar Blue (cytotoxicity CC50), Hep2
# Type: cell-based
# Measurement conditions: human, Hep2 cells (ATCC CCL-23); R6 = F, R8 = H compounds; Hep2 ATCC CCL-23; read-out: hep2 CC50
Structures can show the parent of a compound that is named as a salt.
Observed property: CC50 (µM)
Write the answer as a number in µM, unit excluded.

Quick one: CC50 of CN(C)C1CCN(c2cc3c(cc2F)c(=O)c2c(=O)[nH]sc2n3C2CC2)C1 (stereo not drawn) ?
3

Quick one: CC50 of CC(C)(N)[C@@H]1CCN(c2cc3c(cc2F)c(=O)c2c(=O)[nH]sc2n3C2CC2)C1 [Compound 52, hydrochloride] ?
0.55

Quick one: CC50 of "NC[C@@H]1CCN(c2cc3c(cc2F)c(=O)c2c(=O)[nH]sc2n3C2CC2)C1" ?
3.1
